B1: VTI1B (parent)
chain: NKLLLSIIILLELAILGGLVYYKF

Variants of: B1
protocolSummary: protein stability index of a GFP-peptide fusion (GPS, HEK-293T) (PSI 1-6); higher = more stable;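 also: lentivirally expressed fusions sorted by FACS into six bins by GFP to DsRed ratio, PSI derived from sequencing read proportions per bin multiplied by bin number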
appliedConditions: c terminus: a fixed tail appended
Task for the reader: assign each of the following variants its reported protein stability index.
The response must contain the number and no unit.

Reported protein stability index of NKLLLSIIILLELAILGGLVYAKF [Y22A] : 3.55

Reported protein stability index of HKLLLSIIILLELAILGGLVYYKF [N1H] : 3.67

Reported protein stability index of NKLLLHIIILLELAILGGLVYYKF [S6H] : 2.51

Reported protein stability index of NKLLLSIIILLELAILGGLVYYKL [F24L] : 2.53

Reported protein stability index of NKLLLSIISLLELAILGGLVYYKF [I9S] : 4.04

Reported protein stability index of NKLLLSMIILLELAILGGLVYYKF [I7M] : 3.23

Reported protein stability index of NKLLLSIIILLELAILGGLVYYWF [K23W] : 2.23

Reported protein stability index of NKLLLSIIILLELAILGGGVYYKF [L19G] : 3.14

Reported protein stability index of NQLLLSIIILLELAILGGLVYYKF [K2Q] : 4.47

Reported protein stability index of NKLLLSIIILLELEILGGLVYYKF [A14E] : 3.15

Reported protein stability index of NKLLLSDIILLELAILGGLVYYKF [I7D] : 2.84

Reported protein stability index of NKLLLSIIILLEYAILGGLVYYKF [L13Y] : 2.83

Reported protein stability index of NKLLLSIIILLELAILGGLVQYKF [Y21Q] : 3.37

Reported protein stability index of NKLLLSIIILLELAILGGLKYYKF [V20K] : 3.48

Reported protein stability index of NKLLLSIIILLELAGLGGLVYYKF [I15G] : 3.52

Reported protein stability index of NKLLLSIIILLELAILLGLVYYKF [G17L] : 3.46

Reported protein stability index of NKLLLSIIILSELAILGGLVYYKF [L11S] : 3.88

Reported protein stability index of NKLLTSIIILLELAILGGLVYYKF [L5T] : 3.88

Reported protein stability index of EKLLLSIIILLELAILGGLVYYKF [N1E] : 4.24

Reported protein stability index of NKLLLSIIILLELAILGGLVPYKF [Y21P] : 2.42

Reported protein stability index of NNLLLSIIILLELAILGGLVYYKF [K2N] : 1.92

Reported protein stability index of NKELLSIIILLELAILGGLVYYKF [L3E] : 2.84

Reported protein stability index of NKLLLSIIILLETAILGGLVYYKF [L13T] : 3.42

Reported protein stability index of NSLLLSIIILLELAILGGLVYYKF [K2S] : 2.46

Reported protein stability index of NKYLLSIIILLELAILGGLVYYKF [L3Y] : 3.55

Reported protein stability index of NKLLLSIIILLELAILKGLVYYKF [G17K] : 3.17

Reported protein stability index of NKLLLSIIIKLELAILGGLVYYKF [L10K] : 3.36

Reported protein stability index of CKLLLSIIILLELAILGGLVYYKF [N1C] : 3.66

Reported protein stability index of NKLLLSIAILLELAILGGLVYYKF [I8A] : 3.36

Reported protein stability index of NKLLLSIIILLELAILGGLVYRKF [Y22R] : 2.92

Reported protein stability index of NWLLLSIIILLELAILGGLVYYKF [K2W] : 2.8

Reported protein stability index of NKLLLSIIILLELAILGGLVYNKF [Y22N] : 2.47

Reported protein stability index of NKLLLSIIMLLELAILGGLVYYKF [I9M] : 3.54
